B1: APBB1IP (parent)
chain: SQVSMWDQRWQDHQPLLPITDVP

Variants of: B1
experimental-protocol: protein stability index of a GFP-peptide fusion (GPS, HEK-293T) (PSI 1-6); higher = more stable;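 further: lentivirally expressed fusions sorted by FACS into six bins by GFP to DsRed ratio, PSI derived from sequencing read proportions per bin multiplied by bin number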
condition-parameters: c terminus: native
measurement-kind: protein stability index
Keep the answer to the number alone.

// protein stability index lookup, variant = `SQVSMWDQRWNDHQPLLPITDVP` , result: 2.74

// protein stability index lookup, variant = `SQVSMWDQRWQDHQPLLPITDVW` , result: 2.17

// protein stability index lookup, variant = `SQVSMWDQRWQDHQILLPITDVP` , result: 2.03

// protein stability index lookup, variant = `SQVSMWDQRLQDHQPLLPITDVP` , result: 2.51

// protein stability index lookup, variant = `SQVSMWYQRWQDHQPLLPITDVP` , result: 2

// protein stability index lookup, variant = `SQVSMWDQRPQDHQPLLPITDVP` , result: 3.68

// protein stability index lookup, variant = `GQVSMWDQRWQDHQPLLPITDVP` , result: 2.03

// protein stability index lookup, variant = `SQVSMWDQRWQDHQWLLPITDVP` , result: 1.43

// protein stability index lookup, variant = `SQVSMWDQRWQDHQPLLPILDVP` , result: 1.92

// protein stability index lookup, variant = `SQVSMWDQRWQRHQPLLPITDVP` , result: 1.34

// protein stability index lookup, variant = `SQKSMWDQRWQDHQPLLPITDVP` , result: 2.34

// protein stability index lookup, variant = `SCVSMWDQRWQDHQPLLPITDVP` , result: 1.94

// protein stability index lookup, variant = `SQVSMWDQRWQDHTPLLPITDVP` , result: 2.48

// protein stability index lookup, variant = `FQVSMWDQRWQDHQPLLPITDVP` , result: 1.92
